The measured values listed here are drawn from the supplement of paper PMC13380429.

Would you mind telling me the reported cell viability of each entry?
test system: Calu-3; assay: cell viability relative to DMSO; higher = less toxic; conditions: 72 h; 10000 nM

Prompt line: Using the record for `CC(C)OC(=O)C1=CN(C(=O)c2ccc(F)c(F)c2)CC(C)(C)c2c1[nH]c1ccccc21` , report its cell viability.
Response line: 97.8%

Prompt line: Using the record for COc1cc([S+](C)[O-])ccc1-c1nc2cccnc2[nH]1 (stereo not drawn) , report its cell viability.
Response line: 104%

Prompt line: Using the record for `CCC[C@H](N[C@H]1CCc2cc(F)cc(F)c2C1)C(=O)Nc1cn(C(C)(C)CNCC(C)(C)C)cn1` , report its cell viability.
Response line: 84.4%
